- EXPERIMENT DESCRIPTION: Mouse Experiment #2: DES in mouse plasma by TSQ-ESI-MS after three cream applications or i.p. injection
- Type: in vivo, athymic nude mice
- RECORDED CONDITIONS: athymic nude, ip, DES i.p. 0.75 mg, β-glucuronidase, read-out: DES Amount in plasma
MEASURED PROPERTY: concentration at 1 h (ng/mL)
Number only, in ng/mL; omit the unit.

In: # return recorded concentration at 1 h for input CCC(=C(CC)c1ccc(O)cc1)c1ccc(O)cc1
Out: 1.93

====

- EXPERIMENT DESCRIPTION: Mouse Experiment #1: DES in mouse plasma by TSQ-ESI-MS after i.p. injection or topical DES cream
- Assay type: in vivo
- RECORDED CONDITIONS: ip, 0.75 mg, DES i.p. 0.75 mg, β-glucuronidase sample prep, read-out: DES Amount in plasma
MEASURED PROPERTY: concentration at 1 h (ng/mL)
A number alone suffices; assume ng/mL.

In: Retrieve concentration at 1 h measured for CCC(=C(CC)c1ccc(O)cc1)c1ccc(O)cc1 and print it.
Out: 1.48
